test system: MS2 coat protein; assay: apparent KD of MS2 coat protein; designed switch direction (-1 OFF switch, 1 ON switch): 1; higher = weaker reporter binding; conditions: input ligand: FMN 200 uM
Here the recorded apparent KD of MS2 coat protein is given for each entry.
Enter your answer as a number in µM; do not include the unit.

Illustrative cases are given below, each with its answer.
UGUUGUAUUACAGGAUAUCUAUUGUUUUUAGUUAGAGAAGGGUAUUCACAUGAGGAUCACCCAUGUAUAUACGAGGAAGUUGUG [JMF's solution 82] (Eterna round: R96, puzzle: Same State NG 1)
0.0599
ACAUGAAAUUGAGGAUAUUUUGUACCUACAUGUGACAUGAGGAUCACCCAUGUGGUAAGUAUAAGAGAGAAGGCAAAGAUAUGU [Equivalence 6 - Jieux - Same State NG 2] (Eterna round: R96, puzzle: Same State NG 2)
0.03
AAUAUUUAUGCAGGAUAUGAUUAACAUGAGGAUCACCCAUGUGGUGUUGUGAGUAAGGAGAGUGAUCAGAAGGGCAUUUUUUUU [JMF's solution 73] (Eterna round: R96, puzzle: Same State NG 2)
0.379

Kindly review the next sequence as well.
Recorded apparent KD of MS2 coat protein for AUUUUUAAUGCAGGAUAUGAUUAACAUGAGGAUCACCCAUGUGGUGUUGUGAGUAAGGAGAGUGAUCAGAAGGGCAUCUUUUUU [JMF's solution 81] (Eterna round: R96, puzzle: Same State NG 2) , please?
0.567

Provenance of the data: the supplement of paper PMC9170038
